The entries below come with measured AUC values attached.
Method summary: Blood levels and half-life after oral administration in mice
Assay type: in vivo
Condition context: mouse, 50 mg/kg
Report the figure in ng·h/mL without appending any unit label.

Solved entries:
[
  {
    "Structure": "C[C@@H](O)[C@H]1C(=O)N2C(C(=O)O)=C(SCSc3ccc(Cl)c(Cl)c3)[C@H](C)[C@H]12",
    "AUC (ng·h/mL)": 24000
  },
  {
    "Structure": "Cc1nnc(SCSC2=C(C(=O)O)N3C(=O)[C@H]([C@@H](C)O)[C@H]3[C@H]2C)o1",
    "AUC (ng·h/mL)": 11000
  },
  {
    "Structure": "CSCSC1=C(C(=O)O)N2C(=O)[C@H]([C@@H](C)O)[C@H]2[C@H]1C",
    "AUC (ng·h/mL)": 21000
  },
  {
    "Structure": "C[C@@H](O)[C@H]1C(=O)N2C(C(=O)O)=C(SCSc3ccc(Cl)cc3)[C@H](C)[C@H]12",
    "AUC (ng·h/mL)": 34000
  }
]

Now look at this entry.
Req: Reported AUC, compound Cc1nnc(SCSC2=C(C(=O)O)N3C(=O)[C@H]([C@@H](C)O)[C@H]3[C@H]2C)s1 : ____
Resp: 10000

====

Method summary: Half-life (T1/2) in solution at stated pH (chemical stability)
Assay type: physicochemical
Condition context: pH 7.4, 37° C.
The entries below come with measured half-life values attached.
Report the figure in h without appending any unit label.

Req: Reported half-life, molecule C[C@@H](O)[C@H]1C(=O)N2C(C(=O)O)=C(SCSCc3cccnc3)[C@H](C)[C@H]12 [Io] : ____
Resp: 77

Req: Reported half-life, molecule C[C@@H](O)[C@H]1C(=O)N2C(C(=O)O)=C(SCSc3c(F)c(F)c(F)c(F)c3F)[C@H](C)[C@H]12 [Ir] : ____
Resp: 41

Req: Reported half-life, molecule C[C@@H](O)[C@H]1C(=O)N2C(C(=O)O)=C(SC[S+]([O-])c3ccc(Cl)cc3)[C@H](C)[C@H]12 (stereo partly drawn) [In] : ____
Resp: 106

Req: Reported half-life, molecule C[C@@H](O)[C@H]1C(=O)N2C(C(=O)O)=C(SC[S+]([O-])Cc3cccnc3)[C@H](C)[C@H]12 (stereo partly drawn) [Ip] : ____
Resp: 43

Req: Reported half-life, molecule C[C@@H](O)[C@H]1C(=O)N2C(C(=O)O)=C(SCSc3ccc(Cl)c(Cl)c3)[C@H](C)[C@H]12 [Iq] : ____
Resp: 99

Req: Reported half-life, molecule CSC(C)SC1=C(C(=O)O)N2C(=O)[C@H]([C@@H](C)O)[C@H]2[C@H]1C (single isomer, unassigned) [Iv-B] : ____
Resp: 56

====

Method summary: Half-life (T1/2) in solution at stated pH (chemical stability)
Format: physicochemical
Condition context: pH 7.4
The entries below come with measured half-life values attached.
Report the figure in h without appending any unit label.

Solved entries:
[
  {
    "Molecule": "C[C@@H](O)[C@H]1C(=O)N2C(C(=O)O)=C(SCSc3ccccn3)C[C@H]12",
    "Units label": "h",
    "Result value": 19
  },
  {
    "Molecule": "C[C@@H](O)[C@H]1C(=O)N2C(C(=O)O)=C(SCSc3cccnc3)C[C@H]12",
    "Units label": "h",
    "Result value": 22
  },
  {
    "Molecule": "C[C@@H](O)[C@H]1C(=O)N2C(C(=O)O)=C(SCSc3ccncc3)C[C@H]12",
    "Units label": "h",
    "Result value": 15
  }
]

Req: Reported half-life, molecule C[C@@H](O)[C@H]1C(=O)N2C(C(=O)O)=C(SCSc3cccnc3)[C@H](C)[C@H]12 : ____
Resp: 74

Req: Reported half-life, molecule CSCSC1=C(C(=O)O)N2C(=O)[C@H]([C@@H](C)O)[C@H]2C1 : ____
Resp: 20
